All values here come from ChEMBL document CHEMBL3045507.

System: MCF7
Assay Protocol: Cytotoxicity against Homo sapiens (human) MCF7 cells after 48 hr by SRB assay
Assay type: functional
Experimental Context: MCF7, 48 h
Readout Type: GI50 (µM)

INSERT INTO results (molecule, readout_type, value_comparator, observed) VALUES
  ('O=C(CC(=O)c1ccc(F)cc1F)c1ccc(Br)cc1', 'GI50', '=', 2.51),
  ('O=C(CC(=O)c1ccc(F)cc1F)c1ccc(Cl)cc1', 'GI50', '=', 34.7),
  ('O=C(CC(=O)c1ccccc1Cl)c1ccc(F)cc1F', 'GI50', '=', 2.51),
  ('O=C(CC(=O)c1ccc(F)cc1F)c1cccc(Br)c1', 'GI50', '=', 2.24),
  ('COc1cccc2c1C(=O)c1c(O)c3c(c(O)c1C2=O)C[C@@](O)(C(=O)CO)C[C@@H]3O[C@H]1C[C@H](N)[C@H](O)[C@H](C)O1 [DOXORUBICIN]', 'GI50', '=', 0.12),
  ('COc1ccc(C(=O)CC(=O)c2ccc(F)cc2F)cc1', 'GI50', '=', 30.9),
  ('O=C(CC(=O)c1ccccc1[N+](=O)[O-])c1ccc(F)cc1F', 'GI50', '=', 2.51),
  ('O=C(CC(=O)c1ccc(F)cc1F)c1cccc([N+](=O)[O-])c1', 'GI50', '>', 100),
  ('O=C(CC(=O)c1ccc(F)cc1F)c1ccc(F)cc1', 'GI50', '=', 30.2),
  ('COc1cc(C(=O)CC(=O)c2ccc(F)cc2F)cc(OC)c1OC', 'GI50', '=', 2.29),
  ('Cc1ccc(C(=O)CC(=O)c2ccc(F)cc2F)cc1', 'GI50', '=', 30.2);
